Kindly supply the reported relative viability values for the records listed here.
Tested on: NCI-H2009
experiment: relative viability (nuclei count vs DMSO), 5 days (fraction); higher = more cells survive
study.conditions: first compound 0.5 µM
Please reply with the number alone, leaving off any unit.

Record request: relative viability value, item CC1(C)CCC(c2ccc(Cl)cc2)=C(CN2CCN(c3ccc(C(=O)NS(=O)(=O)c4ccc(N[C@H](CCN5CCOCC5)CSc5ccccc5)c(S(=O)(=O)C(F)(F)F)c4)cc3)CC2)C1 [Navitoclax] + CC(=O)Nc1cccc(-n2c(=O)n(C3CC3)c(=O)c3c(Nc4ccc(I)cc4F)n(C)c(=O)c(C)c32)c1 [Trametinib] (partner 0.02 µM)
0.308

Which relative viability is reported for this compound? CC1(C)CCC(c2ccc(Cl)cc2)=C(CN2CCN(c3ccc(C(=O)NS(=O)(=O)c4ccc(N[C@H](CCN5CCOCC5)CSc5ccccc5)c(S(=O)(=O)C(F)(F)F)c4)cc3)CC2)C1 [Navitoclax] + O=C(CCCCCCC(=O)Nc1ccccc1)NO [Vorinostat] (partner 1 µM)
0.719

Request the reported relative viability associated with CC1(C)CCC(c2ccc(Cl)cc2)=C(CN2CCN(c3ccc(C(=O)NS(=O)(=O)c4ccc(N[C@H](CCN5CCOCC5)CSc5ccccc5)c(S(=O)(=O)C(F)(F)F)c4)cc3)CC2)C1 [Navitoclax] + CC(=O)c1c(C)c2cnc(Nc3ccc(N4CCNCC4)cn3)nc2n(C2CCCC2)c1=O [Palbociclib] (partner 0.5 µM)
0.222

// returns reported relative viability for input CC1(C)CCC(c2ccc(Cl)cc2)=C(CN2CCN(c3ccc(C(=O)NS(=O)(=O)c4ccc(N[C@H](CCN5CCOCC5)CSc5ccccc5)c(S(=O)(=O)C(F)(F)F)c4)cc3)CC2)C1 [Navitoclax] + C[C@@H](Oc1cc(-c2cnn(C3CCNCC3)c2)cnc1N)c1c(Cl)ccc(F)c1Cl [Crizotinib] (partner 1 µM)
1.05

Given the compound CC1(C)CCC(c2ccc(Cl)cc2)=C(CN2CCN(c3ccc(C(=O)NS(=O)(=O)c4ccc(N[C@H](CCN5CCOCC5)CSc5ccccc5)c(S(=O)(=O)C(F)(F)F)c4)cc3)CC2)C1 [Navitoclax] + COc1cc2c(Oc3ccc(NC(=O)C4(C(=O)Nc5ccc(F)cc5)CC4)cc3F)ccnc2cc1OCCCN1CCOCC1 [Foretinib] (partner 0.25 µM) , what is its reported relative viability?
1.27

----------
Tested on: LXF-289
experiment: relative viability (nuclei count vs DMSO), 5 days (fraction); higher = more cells survive
study.conditions: first compound 0.253 µM
Assign relative viability to each entry below.
Number only, no unit.

Fill blank: measured relative viability of the compound C=C1C(=O)O[C@@H](CCCCCCCC)[C@@H]1C(=O)O [C-75] + CS(=O)(=O)N1CCN(Cc2cc3nc(-c4cccc5[nH]ncc45)nc(N4CCOCC4)c3s2)CC1 [Pictilisib] (partner 1 µM) is ____.
0.836

Which value of relative viability has been reported for Oc1nc(-c2ccc(C(F)(F)F)cc2)nc2c1CSCC2 [XAV939] + O=C(CCCCCCC(=O)Nc1ccccc1)NO [Vorinostat] (partner 1 µM) in the records?
0.68

Can you look up the measured relative viability of C=C1C(=O)O[C@@H](CCCCCCCC)[C@@H]1C(=O)O [C-75] + CCNC(=O)c1noc(-c2cc(C(C)C)c(O)cc2O)c1-c1ccc(CN2CCOCC2)cc1 [Luminespib] (partner 0.01 µM) for me?
0.66

// relative viability lookup, key: Oc1nc(-c2ccc(C(F)(F)F)cc2)nc2c1CSCC2 [XAV939] + C[C@@H](Oc1cc(-c2cnn(C3CCNCC3)c2)cnc1N)c1c(Cl)ccc(F)c1Cl [Crizotinib] (partner 1 µM)
0.754

Data request, read-out relative viability, for Oc1nc(-c2ccc(C(F)(F)F)cc2)nc2c1CSCC2 [XAV939] + CS(=O)(=O)CCNCc1ccc(-c2ccc3ncnc(Nc4ccc(OCc5cccc(F)c5)c(Cl)c4)c3c2)o1 [Lapatinib] (partner 2 µM)
0.826
